Entry source: paper PMC1868955

STUDY_SYSTEM: the molecule itself
METHOD_DESCRIPTION: SEC; gel filtration of co-expressed PapDHis/PapA complexes immediately after purification; Superdex75 120 ml, 20 mM TrisHCl pH 7.5, 20 mM NaCl

PROTEIN	binding result
PapA Ntd1 G15N T101L (residues 2 to 8 deleted, G15N, T101L) (natural protein, Two copies stand in the PapD/(PapA)2 complex: one donor-strand complemented by PapD (dscPapA), one donor-strand exchanged with the Nte of the first (dsePapA); also called dscPapA; dsePapA; source: E. coli C600, co-expressed with PapDHis) AGKVTFNNTVVDAPCSISQKSADQSIDFGQLSKSFLEAGGVSKPMDLDIELVNCDITAFKGGNGAKKGTVKLAFTGPIVNGHSDELDTNGGTGLAIVVQGAGKNVVFDGSEGDANTLKDGENVLHYTAVVKKSSAVGAAVTEGAFSAVANFNLTYQ	binds
PapA Ntd1 (residues 2 to 8 deleted) (natural protein, also called Ntd1 (Δ2–8); source: E. coli C600, co-expressed with PapDHis) AGKVTFNGTVVDAPCSISQKSADQSIDFGQLSKSFLEAGGVSKPMDLDIELVNCDITAFKGGNGAKKGTVKLAFTGPIVNGHSDELDTNGGTGTAIVVQGAGKNVVFDGSEGDANTLKDGENVLHYTAVVKKSSAVGAAVTEGAFSAVANFNLTYQ	binds
PapA G15N (natural protein, source: E. coli C600, co-expressed with PapDHis) APTIPQGQGKVTFNNTVVDAPCSISQKSADQSIDFGQLSKSFLEAGGVSKPMDLDIELVNCDITAFKGGNGAKKGTVKLAFTGPIVNGHSDELDTNGGTGTAIVVQGAGKNVVFDGSEGDANTLKDGENVLHYTAVVKKSSAVGAAVTEGAFSAVANFNLTYQ	binds
PapA I4G G15N (natural protein, source: E. coli C600, co-expressed with PapDHis) APTGPQGQGKVTFNNTVVDAPCSISQKSADQSIDFGQLSKSFLEAGGVSKPMDLDIELVNCDITAFKGGNGAKKGTVKLAFTGPIVNGHSDELDTNGGTGTAIVVQGAGKNVVFDGSEGDANTLKDGENVLHYTAVVKKSSAVGAAVTEGAFSAVANFNLTYQ	binds
